system: NCI-H226 lung; assay: NCI tumour cell line growth inhibition, 48 h
Provide the recorded TGI for the entries that follow.

A selection of reference data follows.
C/C(CC(=O)Nc1ccc(C)c(C)c1)=N\N(c1ccccc1)c1ccccc1 : > 100 µM
c1ccc2c(OCCSCCCCCCCCCCSCCOc3cccc4ccccc34)cccc2c1 : > 100 µM
COC(=O)C(Cc1ccc2c(c1)CCC2)Cc1ccc2c(c1)CCC2 : > 100 µM

API: the following record is the query input.
## Task Return TGI measured with NCI-H226 lung given this molecule: "CC1(C)[C@@H]2CC[C@@]1(C)CN(CCC[N+](C)(C)C)C2"
## Result > 100 µM
